Cited source for all entries: patent US7973181B2

# target-of-assay: histone deacetylase activity (HeLa nuclear extract)
# procedure-text: HDAC fluorescent activity assay (Biomol Fluor de Lys), HeLa nuclear extract
# Type: biochemical
# experimental-context: Fluor de Lys substrate
pIC50: −log10 of the molar value.
Entries annotated with measured pIC50
parameter: pIC50

1. N[C@@H](CC1CCC(Oc2ccc(CNCc3ccc4cc(C(=O)NO)sc4c3)cc2)CC1)C(=O)O (stereo partly shown) [Example 29]    > 7.00
2. COc1cc(CNCc2ccc3cc(C(=O)NO)sc3c2)ccc1OCCC[C@H](N)C(=O)O [Example 20]    > 7.00
3. N[C@H](CCOc1ccc(CNCc2ccc3cc(C(=O)NO)sc3c2)cc1)C(=O)OC1CCCC1 [Example 13]    > 7.00
4. N[C@@H](CCCOc1ccc(CNCc2ccc3cc(C(=O)NO)sc3c2)cc1)C(=O)O [Example 18]    6.00 to 7.00
